Some binders, each annotated with its measured Kd.
# measured_target: T1, human IL-33 (R&D Systems, #3625-IL-010/CF) (human, UniProt O95760 112-270)
# T1 construct: Commercial recombinant protein; also called hIL-33; interleukin-33
# T1 sequence (looked up): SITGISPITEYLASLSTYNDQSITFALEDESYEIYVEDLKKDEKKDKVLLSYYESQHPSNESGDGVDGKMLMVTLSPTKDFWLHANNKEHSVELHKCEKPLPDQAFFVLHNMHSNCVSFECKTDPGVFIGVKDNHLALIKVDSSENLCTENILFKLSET
# assay_name: SPR 37C pH7.4, mAb captured
Note: unit pM is implicit; provide only the numeric part.

>  <binder>
H1M9568N (antibody, mouse IgG1, V domains shown, Human variable domains, mouse IgG1 Fc (H1M)) VH: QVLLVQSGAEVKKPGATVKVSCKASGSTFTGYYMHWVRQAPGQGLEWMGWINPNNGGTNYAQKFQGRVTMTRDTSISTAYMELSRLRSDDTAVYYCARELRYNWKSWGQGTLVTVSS VL: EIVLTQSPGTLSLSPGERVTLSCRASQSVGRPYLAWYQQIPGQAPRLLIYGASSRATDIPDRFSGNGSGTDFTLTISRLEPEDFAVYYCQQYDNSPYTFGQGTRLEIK

>  <unit_info>
pM

>  <Kd>
1430

$$$$
>  <binder>
H4H9664P (antibody, human IgG4, V domains shown, Human IgG4 Fc (H4H)) VH: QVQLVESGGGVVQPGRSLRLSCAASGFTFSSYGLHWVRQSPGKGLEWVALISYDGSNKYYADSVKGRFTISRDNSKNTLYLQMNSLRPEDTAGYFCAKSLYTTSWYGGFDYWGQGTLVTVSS VL: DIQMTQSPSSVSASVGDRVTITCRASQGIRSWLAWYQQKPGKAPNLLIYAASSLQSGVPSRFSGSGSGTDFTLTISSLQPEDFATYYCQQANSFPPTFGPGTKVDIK

>  <unit_info>
pM

>  <Kd>
1390

$$$$
>  <binder>
H4H9660P (antibody, human IgG4, V domains shown, Human IgG4 Fc (H4H)) VH: EVQLVESGGGLVQPGGSLRLSCAASGITLSSYGMSWVRQAPGKGLEWVASIFGSGGGPYYADSVKGRFTMSRDNSKNTLYLQMNSLRAEDTAVYYCAKDRYSGSYYGGFDYWGRGTLVTVSS VL: DIQMTQSPSSVSASVGDRVTITCRASQGITSWLAWYQQKPGKAPTLLIYAASSLQTGVPSRFSGSGSGTDFTLTISSLQPEHFATYYCQQANSFPPTFGGGTKVEIK

>  <unit_info>
pM

>  <Kd>
596

$$$$

Req: Need Kd, item H4H9666P (antibody, human IgG4, V domains shown, Human IgG4 Fc (H4H)) VH: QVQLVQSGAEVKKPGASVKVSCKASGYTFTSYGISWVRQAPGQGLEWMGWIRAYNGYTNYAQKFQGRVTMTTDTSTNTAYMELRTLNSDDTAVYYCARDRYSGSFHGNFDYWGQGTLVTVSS VL: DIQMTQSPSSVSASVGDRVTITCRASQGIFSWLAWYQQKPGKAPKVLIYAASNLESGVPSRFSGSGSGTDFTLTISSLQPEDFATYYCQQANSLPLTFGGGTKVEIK
Resp: 681

Req: Which Kd is reported for this binder? H4H9662P (antibody, V domains shown, Human IgG4 Fc (H4H)) VH: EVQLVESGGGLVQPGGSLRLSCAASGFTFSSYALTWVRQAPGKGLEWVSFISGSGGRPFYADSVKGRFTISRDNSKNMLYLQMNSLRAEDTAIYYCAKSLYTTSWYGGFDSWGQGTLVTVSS VL: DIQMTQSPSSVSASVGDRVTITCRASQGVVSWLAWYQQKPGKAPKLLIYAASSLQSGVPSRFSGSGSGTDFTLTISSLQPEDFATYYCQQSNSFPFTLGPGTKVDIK
Resp: 443
